Entries and their IC50 values follow.
Test system: M. Smegmatis ATCC607
Assay details: In-vitro anti-bacterial activity against strain M. smegmatis ATCC607 (Alamar Blue growth inhibition)
Type: cell-based
Measurement conditions: Mycolicibacterium smegmatis, 48 hours incubation, read-out: M. smegmatis pIC50 (converted)
Readout type: IC50

INSERT INTO results (compound, system_name, val) VALUES
  ('COc1nc2ccc(Br)cc2cc1C(c1ccccc1F)N(CCN(C)C)Cc1ccccc1 (centres unmarked) [Compound 22]', 'M. Smegmatis ATCC607', '1580 nM'),
  ('COc1nc2ccc(Br)cc2cc1C(c1ccccc1)N(CC(=O)N1CCN(C)CC1)Cc1cccc2ncccc12 (centres unmarked) [Compound 114]', 'M. Smegmatis ATCC607', '20000 nM'),
  ('CCOC(=O)CN(Cc1ccccc1)C(c1ccccc1)c1cc2cc(C)ccc2nc1-c1ccccc1 (centres unmarked) [Compound 150]', 'M. Smegmatis ATCC607', '398 nM'),
  ('COc1nc2ccc(Br)cc2cc1C(c1ccccc1)N(C)CC(=O)N1CCC(C)CC1 (centres unmarked) [Compound 83]', 'M. Smegmatis ATCC607', '2510 nM'),
  ('Cc1ccc2nc(-c3ccccc3)c(C(c3ccccc3)N(CC(=O)NN3CCN(C)CC3)Cc3ccccc3)cc2c1 (centres unmarked) [Compound 69]', 'M. Smegmatis ATCC607', '1580 nM'),
  ('CCOC(=O)CN(C)C(c1ccccc1)c1cc2cc(Br)ccc2nc1OC (centres unmarked) [Compound 131]', 'M. Smegmatis ATCC607', '1000 nM'),
  ('CN(C)CCN(Cc1ccccc1)C(c1ccccc1)c1cc2cc(Br)ccc2nc1-c1ccccc1 (centres unmarked) [Compound 51]', 'M. Smegmatis ATCC607', '1000 nM'),
  ('CCOC(=O)CN(Cc1cccc2ncccc12)C(c1ccccc1)c1cc2cc(Br)ccc2nc1OC (centres unmarked) [Compound 145]', 'M. Smegmatis ATCC607', '31600 nM'),
  ('Cc1ccc2nc(-c3ccccc3)c(C(c3ccccc3)N(CC(=O)N3CCCCC3)Cc3ccccc3)cc2c1 (centres unmarked) [Compound 66]', 'M. Smegmatis ATCC607', '2510 nM'),
  ('CNC(=O)CN(C)C(c1ccccc1)c1cc2cc(Br)ccc2nc1OC (centres unmarked) [Compound 3]', 'M. Smegmatis ATCC607', '89100 nM'),
  ('CC(C)N(C)C(=O)CN(Cc1ccccc1)C(c1cc2ccccc2o1)c1cc2ccccc2nc1-c1ccccc1 (centres unmarked) [Compound 36]', 'M. Smegmatis ATCC607', '316 nM'),
  ('CCN(CC)C(=O)CN(Cc1ccccc1)C(c1ccccc1)c1cc2cc(C)ccc2nc1-c1ccccc1 (centres unmarked) [Compound 47]', 'M. Smegmatis ATCC607', '316 nM'),
  ('COc1cccc(CN(CCN(C)C)C(c2ccccc2)c2cc3cc(Br)ccc3nc2OC)c1 (centres unmarked) [Compound 20]', 'M. Smegmatis ATCC607', '1260 nM'),
  ('COc1nc2ccc(Br)cc2cc1C(c1ccccc1)N(CCN(C)C)c1ccccc1 (centres unmarked) [Compound 18]', 'M. Smegmatis ATCC607', '2000 nM'),
  ('COc1nc2ccc(Br)cc2cc1C(c1ccccc1)[N+]([O-])(CC(=O)N1CCOCC1)Cc1ccccc1 (centres unmarked) [Compound 154]', 'M. Smegmatis ATCC607', '3980 nM'),
  ('Cc1ccc2nc(-c3ccccc3)c(C(c3ccccc3)N(C)CCN(C)C)cc2c1 (centres unmarked) [Compound 37]', 'M. Smegmatis ATCC607', '20000 nM'),
  ('CN(C)C(=O)CN(Cc1ccccc1)C(c1ccccc1)c1cc2cc(Br)ccc2nc1-c1ccccc1 (centres unmarked) [Compound 53]', 'M. Smegmatis ATCC607', '316 nM'),
  ('Cc1ccc2nc(-c3ccccc3)c(C(c3ccccc3)N(CC(=O)N3CCSCC3)Cc3ccccc3)cc2c1 (centres unmarked) [Compound 70]', 'M. Smegmatis ATCC607', '251 nM'),
  ('Cc1ccc2nc(-c3ccccc3)c(C(c3ccccc3)N(CC(=O)N(C)C)Cc3ccccc3)cc2c1 (centres unmarked) [Compound 45]', 'M. Smegmatis ATCC607', '1000 nM'),
  ('CCOC(=O)CN(Cc1ccccc1)C(c1ccccc1)c1cc2cc(Br)ccc2nc1-c1ccccc1 (centres unmarked) [Compound 146]', 'M. Smegmatis ATCC607', '501 nM'),
  ('CC(C)N(C)C(=O)CN(Cc1ccccc1)C(c1ccccc1)c1cc2cc(Br)ccc2nc1Oc1ccccc1 (centres unmarked) [Compound 30]', 'M. Smegmatis ATCC607', '631 nM'),
  ('COc1nc2ccc(C#N)cc2cc1C(c1ccccc1)N(CC(=O)N1CCCC1)Cc1ccccc1 (centres unmarked) [Compound 122]', 'M. Smegmatis ATCC607', '63100 nM'),
  ('Cc1ccc2nc(-c3ccccc3)c(C(c3ccccc3)N(CC(=O)N3CCN(C)CC3)Cc3ccccc3)cc2c1 (centres unmarked) [Compound 72]', 'M. Smegmatis ATCC607', '1580 nM'),
  ('Cc1ccc2nc(-c3ccccc3)c(C(c3ccccc3)N(CC(=O)N(C)C(C)C)Cc3ccccc3)cc2c1 (centres unmarked) [Compound 41]', 'M. Smegmatis ATCC607', '100 nM'),
  ('CCN(CC)CCN(C)C(c1ccccc1)c1cc2cc(Br)ccc2nc1OC (centres unmarked) [Compound 2]', 'M. Smegmatis ATCC607', '2000 nM'),
  ('COc1nc2ccc(C)cc2cc1C(c1ccccc1)N(CC(=O)N1CCOCC1)Cc1ccccc1 (centres unmarked) [Compound 59]', 'M. Smegmatis ATCC607', '1580 nM'),
  ('CCOC(=O)CN(Cc1ccccc1)C(c1cccnc1)c1cc2ccccc2nc1-c1ccccc1 (centres unmarked) [Compound 129]', 'M. Smegmatis ATCC607', '1580 nM'),
  ('CCOC(=O)CN(Cc1ccccc1)C(c1ccccc1)c1cc2cc(-c3cccnc3)ccc2nc1-c1ccccc1 (centres unmarked) [Compound 152]', 'M. Smegmatis ATCC607', '2510 nM'),
  ('COc1nc2ccc(Br)cc2cc1C(c1ccccc1)N(CC(=O)N1CCN(C)CC1)Cc1ccccc1 (centres unmarked) [Compound 104]', 'M. Smegmatis ATCC607', '1580 nM');
